- ASSAYED_TARGET: human MGL from HeLa cells (Homo sapiens (Human))
- ASSAY_INFO: MGL in vitro activity assay ([glycerol-1,3-3H]-oleoyl glycerol hydrolysis, activated carbon filtration)
- CONDITIONS_USED: 300 nM [Glycerol-1,3-3H]-oleoyl glycerol, one hour
Each entry below carries its recorded pIC50.
A value of pIC50 is the negative decimal logarithm of a concentration given in moles per litre.

Below, each entry is followed by its recorded pIC50 result.
QUERY: Return the recorded pIC50 value; entry: CC(C)c1cc(F)cc(C2CCC3(C2)CN(C(=O)[C@H]2C[C@@](C)(O)C2)C3)c1 (mixture of isomers) [Example 125]
RESULT: 8.08

QUERY: Give pIC50 for C[C@@H](c1ccccc1)[C@H]1CCC2(C1)CN(C(=O)[C@H]1C[C@@](C)(O)C1)C2 (relative stereo) [Example 338]
RESULT: 7.22

QUERY: Name the recorded pIC50 of the compound listed here: C[C@]1(O)C[C@@H](C(=O)N2CC3(CCC(c4ccn5ccnc5c4)C3)C2)C1 (mixture of isomers) [Example 328]
RESULT: 5.43

QUERY: Please report pIC50 for the following compound: Cc1ccc(OC2CCC3(CC2)CN(C(=O)[C@H]2C[C@@](C)(O)C2)C3)nc1C [Example 428]
RESULT: 7.33

QUERY: Respond only with pIC50 recorded for COc1nc(OC2CCC3(CC2)CN(C(=O)[C@H]2C[C@@](C)(O)C2)C3)ccc1C(F)(F)F [Example 458]
RESULT: 9.26

New cases:
QUERY: Given CC(C)(C)c1ccc(OC2CCC3(CC2)CN(C(=O)[C@H]2C[C@@](C)(O)C2)C3)cc1 [Example 260] , respond with its pIC50.
RESULT: 8.00

QUERY: Return the recorded pIC50 value; entry: Cn1ccc2ccc(CC3CC4(C3)CN(C(=O)[C@H]3C[C@@](C)(O)C3)C4)nc21 [Example 224]
RESULT: 7.57

QUERY: Indicate its recorded pIC50; the compound in question is Cc1cccc(C(F)(F)F)c1CC1CC2(C1)CN(C(=O)[C@H]1C[C@@](C)(O)C1)C2 [Example 226]
RESULT: 8.68

QUERY: For the compound CCOc1cccc(C2CCC3(CC2)CN(C(=O)[C@H]2C[C@@](C)(O)C2)C3)c1C [Example 361] , report pIC50.
RESULT: 8.74

QUERY: Complete the entry with pIC50 for Cc1cc2ccc(OC3CCC4(CC3)CN(C(=O)[C@H]3C[C@@](C)(O)C3)C4)nc2n1C [Example 472]
RESULT: 7.59

QUERY: Identify pIC50 associated with the compound Cc1cc(C(F)(F)F)ccc1C1CCC2(C1)CN(C(=O)[C@H]1C[C@@](C)(O)C1)C2 (mixture of isomers) [Example 8]
RESULT: 8.30

QUERY: Note down pIC50 recorded for C[C@]1(O)C[C@@H](C(=O)N2CC3(CC(Cc4ccc5ccn(CC(F)(F)F)c5n4)C3)C2)C1 [Example 297]
RESULT: 7.68

QUERY: Using the record for Cc1cc(Cl)ccc1C1CCC2(C1)CN(C(=O)[C@H]1C[C@@](C)(O)C1)C2 (mixture of isomers) [Example 10] , state its measured pIC50.
RESULT: 7.66

QUERY: For the compound C[C@]1(O)C[C@@H](C(=O)N2CC3(CCC(Oc4ccc5c(n4)CCC5)CC3)C2)C1 [Example 468] , report pIC50.
RESULT: 7.54

QUERY: Report measured pIC50; entry is CN(C)c1cc(C2CCC3(CC2)CN(C(=O)[C@H]2C[C@@](C)(O)C2)C3)cc(C(F)(F)F)c1 [Example 123]
RESULT: 7.57

QUERY: Give the reported value of pIC50 for this record: C[C@]1(O)C[C@@H](C(=O)N2CC3(CC(Cc4cccc(OC(F)(F)F)c4)C3)C2)C1 [Example 194]
RESULT: 8.31

QUERY: Please indicate pIC50 recorded for C[C@]1(O)C[C@@H](C(=O)N2CC3(CC[C@@H](Cc4cccc(C(F)(F)F)c4)C3)C2)C1 (stereo in doubt) [Example 178]
RESULT: 7.96

QUERY: Provide pIC50 value for the following compound: Cc1cc(OC2CC3(C2)CN(C(=O)[C@H]2C[C@@](C)(O)C2)C3)ccc1C(F)(F)F [Example 247]
RESULT: 7.85

QUERY: Consider the compound Cc1ccc(Cl)c(OC2CCC3(CC2)CN(C(=O)[C@H]2C[C@@](C)(O)C2)C3)n1 [Example 435] and give its recorded pIC50.
RESULT: 8.08

QUERY: Please give the documented pIC50 of C[C@]1(O)C[C@@H](C(=O)N2CC3(CC(Cc4ccc(OC5CC5)cc4)C3)C2)C1 [Example 272]
RESULT: 8.09

QUERY: Give reported pIC50 value for Cc1cc(C(F)(F)F)ccc1OC1CC2(CCN(C(=O)[C@H]3C[C@@](C)(O)C3)CC2)C1 [Example 479]
RESULT: 8.51

QUERY: Output pIC50 of CCc1ccc(OC2CCC3(CC2)CN(C(=O)[C@H]2C[C@@](C)(O)C2)C3)nc1OC [Example 454]
RESULT: 8.66

====

- ASSAYED_TARGET: human MGL from HeLa cells (Homo sapiens (Human), UniProt Q99685)
- Sequence (Q99685 whole entry): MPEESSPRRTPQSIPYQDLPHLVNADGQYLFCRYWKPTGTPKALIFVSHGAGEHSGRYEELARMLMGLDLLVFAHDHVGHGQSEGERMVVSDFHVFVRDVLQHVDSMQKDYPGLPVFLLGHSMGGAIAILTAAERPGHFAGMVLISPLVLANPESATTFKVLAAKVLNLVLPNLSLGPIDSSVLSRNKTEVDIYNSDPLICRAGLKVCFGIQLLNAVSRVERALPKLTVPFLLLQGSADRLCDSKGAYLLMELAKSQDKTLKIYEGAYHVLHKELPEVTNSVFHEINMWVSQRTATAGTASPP
- ASSAY_INFO: MGL in vitro activity assay ([glycerol-1,3-3H]-oleoyl glycerol hydrolysis, activated carbon filtration)
- CONDITIONS_USED: 300 nM [Glycerol-1,3-3H]-oleoyl glycerol, one hour
pIC50: −log10 of the molar value.
Use T when the recorded pIC50 is no lower than 8; use F when it is lower.

Field: example entries. Status: answers known.
QUERY: Confirm if pIC50 reported for the compound Cc1ccccc1CC1CCC2(C1)CN(C(=O)[C@H]1C[C@@](C)(O)C1)C2 (mixture of isomers) [Example 175] is 8 or above.
RESULT: F

QUERY: Confirm if pIC50 reported for the compound Cc1cc(OC(F)F)ccc1C1CCC2(C1)CN(C(=O)[C@H]1C[C@@](C)(O)C1)C2 (mixture of isomers) [Example 83] is 8 or above.
RESULT: F

QUERY: In plain terms: is recorded pIC50 at least 8 for COC1(c2cc(C)cc(C)c2)CCC2(CC1)CN(C(=O)[C@H]1C[C@@](C)(O)C1)C2 [Example 344] ?
RESULT: T

QUERY: Does Cn1cc(C(F)(F)F)c2ccc(CC3CC4(C3)CN(C(=O)[C@H]3C[C@@](C)(O)C3)C4)nc21 [Example 296] have a reported pIC50 of at least 8?
RESULT: T

QUERY: Does the reported pIC50 for CCOc1cc(F)cc(C2CCC3(CC2)CN(C(=O)[C@H]2C[C@@](C)(O)C2)C3)c1 [Example 365] fall at or above the 8 mark?
RESULT: F

New cases:
QUERY: Does the reported pIC50 for CC(C)c1c(CC2CC3(C2)CN(C(=O)[C@H]2C[C@@](C)(O)C2)C3)cccc1C(F)(F)F [Example 210] fall at or above the 8 mark?
RESULT: T

QUERY: Say whether C[C@]1(O)C[C@@H](C(=O)N2CC3(CCC(c4cnc5ccccn45)CC3)C2)C1 [Example 392] shows pIC50 of 8 or more.
RESULT: F

QUERY: Given C[C@]1(O)C[C@@H](C(=O)N2CC3(CCC(c4cccc(C5CC5)c4)C3)C2)C1 (mixture of isomers) [Example 58] , state whether its pIC50 is at least 8.
RESULT: F

QUERY: # bool: pIC50 of COc1ccc(CC2CC3(C2)CN(C(=O)[C@H]2C[C@@](C)(O)C2)C3)cc1 [Example 192] >= 8
RESULT: F

====

- ASSAYED_TARGET: human MGL from HeLa cells (Homo sapiens (Human))
- ASSAY_INFO: MGL in vitro activity assay ([glycerol-1,3-3H]-oleoyl glycerol hydrolysis, activated carbon filtration)
- Type: biochemical
- CONDITIONS_USED: 300 nM [Glycerol-1,3-3H]-oleoyl glycerol, one hour
pIC50: −log10 of the molar value.
Respond with Criterion met for pIC50 values of 8 and above, Criterion not met for values below.

Study these solved cases before continuing.
QUERY: Quick check, pIC50 >= 8? CC[C@]1(O)C[C@@H](C(=O)N2CC3(CCC(Oc4ccc(C)c(C(F)(F)F)n4)CC3)C2)C1
RESULT: Criterion not met

QUERY: Record C[C@]1(O)C[C@@H](C(=O)N2CC3(CCC(c4cccc(OC(F)(F)F)c4)C3)C2)C1 (mixture of isomers) ; criterion: pIC50 no lower than 8. Met?
RESULT: Criterion not met

QUERY: Reported pIC50 at or above 8? Cc1ccc(F)cc1C1CCC2(CC1)CN(C(=O)[C@H]1C[C@@](C)(O)C1)C2
RESULT: Criterion not met

QUERY: Decide: pIC50 of COc1cccc(C2CCC3(C2)CN(C(=O)[C@H]2C[C@@](C)(O)C2)C3)c1F (mixture of isomers) >= 8?
RESULT: Criterion not met

---
QUERY: Item CCc1cc(C2CCC3(CC2)CN(C(=O)[C@H]2C[C@@](C)(O)C2)C3)cc(C(F)(F)F)c1 with pIC50 of 8 or above?
RESULT: Criterion met

QUERY: Given the entry C[C@]1(O)C[C@@H](C(=O)N2CC3(CCC(Oc4ccc(C5CC5)c(F)c4)CC3)C2)C1 , answer whether its pIC50 meets or surpasses 8.
RESULT: Criterion met

QUERY: Kindly determine if pIC50 recorded for Cc1cccc(C2CCC3(CC2)CN(C(=O)[C@H]2C[C@@](C)(O)C2)C3)c1 is above or exactly 8.
RESULT: Criterion not met

QUERY: Exam item: decide whether the reported pIC50 for Cc1ccc(CC2CCC3(C2)CN(C(=O)[C@H]2C[C@@](C)(O)C2)C3)cc1 (mixture of isomers) is at least 8.
RESULT: Criterion not met

QUERY: Confirm if pIC50 reported for the compound CC(C)Oc1nc(CC2CC3(C2)CN(C(=O)[C@H]2C[C@@](C)(O)C2)C3)ccc1C(F)(F)F is 8 or above.
RESULT: Criterion met

Source: patent US11802111B2
